# assay-overview: Solubility in water by HPLC
# Assay type: physicochemical
# measurement-context: thermodynamic from solid; purified water, 25° C.

{"compound": "CCN(CC)CCNC(=O)c1c(C)[nH]c2c1CCC/C2=C1/C(=O)Nc2ccc(F)cc21.Cc1ccc(S(=O)(=O)O)cc1 [P-toluenesulfonate]", "solubility at 30 min [mg/mL]": 0.419}
{"compound": "CCN(CC)CCNC(=O)c1c(C)[nH]c2c1CCC/C2=C1/C(=O)Nc2ccc(F)cc21.O=S(=O)(O)c1ccccc1 [Benzenesulfonate]", "solubility at 30 min [mg/mL]": 19.2}
{"compound": "CCN(CC)CCNC(=O)c1c(C)[nH]c2c1CCC/C2=C1/C(=O)Nc2ccc(F)cc21.Cl [Hydrochloride]", "solubility at 30 min [mg/mL]": 22.8}
{"compound": "CCN(CC)CCNC(=O)c1c(C)[nH]c2c1CCC/C2=C1/C(=O)Nc2ccc(F)cc21.O=C(O)/C=C\\C(=O)O [Maleate]", "solubility at 30 min [mg/mL]": 1.32}
{"compound": "CC(=O)O.CCN(CC)CCNC(=O)c1c(C)[nH]c2c1CCC/C2=C1/C(=O)Nc2ccc(F)cc21 [Acetate]", "solubility at 30 min [mg/mL]": 30.7}
{"compound": "CCN(CC)CCNC(=O)c1c(C)[nH]c2c1CCC/C2=C1/C(=O)Nc2ccc(F)cc21.CS(=O)(=O)O [Methanesulfonate]", "solubility at 30 min [mg/mL]": 12.3}
{"compound": "CCN(CC)CCNC(=O)c1c(C)[nH]c2c1CCC/C2=C1/C(=O)Nc2ccc(F)cc21.O=S(=O)(O)O [Sulfate]", "solubility at 30 min [mg/mL]": 0.236}
{"compound": "CCN(CC)CCNC(=O)c1c(C)[nH]c2c1CCC/C2=C1/C(=O)Nc2ccc(F)cc21.O=P(O)(O)O [Phosphate]", "solubility at 30 min [mg/mL]": 29.7}
{"compound": "CCN(CC)CCNC(=O)c1c(C)[nH]c2c1CCC/C2=C1/C(=O)Nc2ccc(F)cc21.O=C(O)C[C@H](O)C(=O)O [L-malate]", "solubility at 30 min [mg/mL]": 38.6}
{"compound": "CC(O)C(=O)O.CCN(CC)CCNC(=O)c1c(C)[nH]c2c1CCC/C2=C1/C(=O)Nc2ccc(F)cc21 [Lactate]", "solubility at 30 min [mg/mL]": 24}
{"compound": "CCN(CC)CCNC(=O)c1c(C)[nH]c2c1CCC/C2=C1/C(=O)Nc2ccc(F)cc21", "solubility at 30 min [mg/mL]": 0.02}
{"compound": "CCN(CC)CCNC(=O)c1c(C)[nH]c2c1CCC/C2=C1/C(=O)Nc2ccc(F)cc21.O=C(O)CCC(=O)O [Succinate]", "solubility at 30 min [mg/mL]": 13.4}
{"compound": "CCN(CC)CCNC(=O)c1c(C)[nH]c2c1CCC/C2=C1/C(=O)Nc2ccc(F)cc21.O=C(O)C(O)C(O)C(=O)O [L-tartrate]", "solubility at 30 min [mg/mL]": 10.6}
{"compound": "CCN(CC)CCNC(=O)c1c(C)[nH]c2c1CCC/C2=C1/C(=O)Nc2ccc(F)cc21.O=C(O)CC(O)(CC(=O)O)C(=O)O [Citrate]", "solubility at 30 min [mg/mL]": 38.2}
{"compound": "CCN(CC)CCNC(=O)c1c(C)[nH]c2c1CCC/C2=C1/C(=O)Nc2ccc(F)cc21.O=C(O)/C=C/C(=O)O [Fumarate]", "solubility at 30 min [mg/mL]": 0.0168}

---

# assay-overview: Plasma exposure (AUC) in rats after gavage administration
# Assay type: in vivo
# measurement-context: rat, po, male SD rats, 10 mg/kg (based on pharmaceutically active compound), salts dissolved in pure water, active compound as suspension in 0.5% CMC, up to 24 h

{"compound": "CCN(CC)CCNC(=O)c1c(C)[nH]c2c1CCC/C2=C1/C(=O)Nc2ccc(F)cc21", "AUC(0-t), µg·h/mL": 0.128}
{"compound": "CC(O)C(=O)O.CCN(CC)CCNC(=O)c1c(C)[nH]c2c1CCC/C2=C1/C(=O)Nc2ccc(F)cc21 [Lactate]", "AUC(0-t), µg·h/mL": 0.652}
{"compound": "CCN(CC)CCNC(=O)c1c(C)[nH]c2c1CCC/C2=C1/C(=O)Nc2ccc(F)cc21.O=C(O)C[C@H](O)C(=O)O [L-malate]", "AUC(0-t), µg·h/mL": 1.49}
{"compound": "CCN(CC)CCNC(=O)c1c(C)[nH]c2c1CCC/C2=C1/C(=O)Nc2ccc(F)cc21.Cl [Hydrochloride]", "AUC(0-t), µg·h/mL": 0.185}
{"compound": "CCN(CC)CCNC(=O)c1c(C)[nH]c2c1CCC/C2=C1/C(=O)Nc2ccc(F)cc21.O=P(O)(O)O [Phosphate]", "AUC(0-t), µg·h/mL": 0.322}
{"compound": "CCN(CC)CCNC(=O)c1c(C)[nH]c2c1CCC/C2=C1/C(=O)Nc2ccc(F)cc21.O=C(O)CC(O)(CC(=O)O)C(=O)O [Citrate]", "AUC(0-t), µg·h/mL": 0.838}

---

# assay-overview: Hygroscopicity measurement (weight gain)
# Format: physicochemical
# measurement-context: 25±1° C., relative humidity 80±2%, 24 hours
measured-attribute: Hygroscopicity

{"molecule": "CCN(CC)CCNC(=O)c1c(C)[nH]c2c1CCC/C2=C1/C(=O)Nc2ccc(F)cc21 [Pharmaceutically active compound]", "experimental-result": "Almost no hygroscopicity"}
{"molecule": "CCN(CC)CCNC(=O)c1c(C)[nH]c2c1CCC/C2=C1/C(=O)Nc2ccc(F)cc21.O=C(O)C[C@H](O)C(=O)O [L-malate]", "experimental-result": "Almost no hygroscopicity"}
{"molecule": "Br.CCN(CC)CCNC(=O)c1c(C)[nH]c2c1CCC/C2=C1/C(=O)Nc2ccc(F)cc21 [Hydrobromate]", "experimental-result": "Almost no hygroscopicity"}
{"molecule": "CCN(CC)CCNC(=O)c1c(C)[nH]c2c1CCC/C2=C1/C(=O)Nc2ccc(F)cc21.Cl [Hydrochloride]", "experimental-result": "Almost no hygroscopicity"}
